Molecular target: T1, PTPRG, endogenous in H929 multiple myeloma cells (human, UniProt P23470 20-1445)
T1 construct: Native protein on H929 cells (flow cytometry, siRNA knockdown) and in H929 lysates (IP/MS); also called phosphatase receptor type γ
T1 sequence (P23470 20-1445 limits assumed): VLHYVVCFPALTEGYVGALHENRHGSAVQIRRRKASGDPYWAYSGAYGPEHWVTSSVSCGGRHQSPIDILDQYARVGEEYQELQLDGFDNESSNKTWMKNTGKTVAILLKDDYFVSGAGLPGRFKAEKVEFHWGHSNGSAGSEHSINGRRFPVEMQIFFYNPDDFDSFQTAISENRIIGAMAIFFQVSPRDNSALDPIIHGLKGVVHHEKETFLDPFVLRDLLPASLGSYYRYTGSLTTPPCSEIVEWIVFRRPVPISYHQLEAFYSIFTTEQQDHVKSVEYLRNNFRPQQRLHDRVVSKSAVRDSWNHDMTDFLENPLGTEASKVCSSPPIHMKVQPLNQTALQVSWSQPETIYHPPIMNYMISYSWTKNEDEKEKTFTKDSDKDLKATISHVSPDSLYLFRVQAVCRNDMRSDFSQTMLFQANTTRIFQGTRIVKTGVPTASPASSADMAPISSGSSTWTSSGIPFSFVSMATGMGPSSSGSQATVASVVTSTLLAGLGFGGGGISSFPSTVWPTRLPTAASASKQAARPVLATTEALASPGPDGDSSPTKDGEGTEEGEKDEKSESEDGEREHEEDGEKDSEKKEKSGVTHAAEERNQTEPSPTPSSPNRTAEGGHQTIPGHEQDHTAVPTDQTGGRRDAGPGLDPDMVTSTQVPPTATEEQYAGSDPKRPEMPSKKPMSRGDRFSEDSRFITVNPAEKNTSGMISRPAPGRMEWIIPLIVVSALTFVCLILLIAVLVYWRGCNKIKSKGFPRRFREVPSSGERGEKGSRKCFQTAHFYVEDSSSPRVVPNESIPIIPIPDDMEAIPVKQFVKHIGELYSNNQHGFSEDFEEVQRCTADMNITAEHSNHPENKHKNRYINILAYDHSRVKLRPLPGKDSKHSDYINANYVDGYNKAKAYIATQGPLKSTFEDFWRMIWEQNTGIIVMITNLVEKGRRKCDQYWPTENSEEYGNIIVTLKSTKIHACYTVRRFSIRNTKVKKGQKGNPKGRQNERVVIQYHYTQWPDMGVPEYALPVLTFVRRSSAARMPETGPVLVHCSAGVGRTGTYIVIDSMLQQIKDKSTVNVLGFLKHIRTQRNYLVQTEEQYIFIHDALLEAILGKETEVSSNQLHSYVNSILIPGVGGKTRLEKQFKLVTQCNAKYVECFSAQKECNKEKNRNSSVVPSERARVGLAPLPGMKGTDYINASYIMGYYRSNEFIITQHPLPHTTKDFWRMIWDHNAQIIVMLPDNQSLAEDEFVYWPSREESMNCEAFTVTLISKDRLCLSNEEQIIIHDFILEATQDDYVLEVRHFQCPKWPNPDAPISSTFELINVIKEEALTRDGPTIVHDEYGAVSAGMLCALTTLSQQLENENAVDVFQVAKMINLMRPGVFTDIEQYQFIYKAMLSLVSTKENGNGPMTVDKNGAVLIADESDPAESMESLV
Test: flow cytometry, H929 + CADM1 siRNA; None 449
quantity_kind: mAb binding (MFI)
Reply with the value as a number alone.

Endpoint output: mAb binding (MFI) of HW-1 chimeric rabbit-human IgG1 LA/LA/PG (antibody, V domains shown, Fc-silenced (L234A/L235A/P329G) IgG1, lambda; Alexa Fluor 647-labeled in single-step flow cytometry; Prototype of cluster C-1) VH: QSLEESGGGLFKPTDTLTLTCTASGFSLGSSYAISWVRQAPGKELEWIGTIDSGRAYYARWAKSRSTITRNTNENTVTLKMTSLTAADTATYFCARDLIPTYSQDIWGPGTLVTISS VL: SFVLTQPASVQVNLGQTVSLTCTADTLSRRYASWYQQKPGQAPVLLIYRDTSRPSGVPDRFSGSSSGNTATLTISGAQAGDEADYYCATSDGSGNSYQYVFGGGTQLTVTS . Value?
17500

Endpoint output: mAb binding (MFI) of HW-42 chimeric rabbit-human IgG1 LA/LA/PG (antibody, V domains shown, Fc-silenced (L234A/L235A/P329G) IgG1, lambda; Alexa Fluor 647-labeled in single-step flow cytometry; Cluster C-1) VH: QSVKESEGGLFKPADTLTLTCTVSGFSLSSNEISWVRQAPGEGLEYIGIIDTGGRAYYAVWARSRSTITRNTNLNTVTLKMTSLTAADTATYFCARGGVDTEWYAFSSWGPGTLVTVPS VL: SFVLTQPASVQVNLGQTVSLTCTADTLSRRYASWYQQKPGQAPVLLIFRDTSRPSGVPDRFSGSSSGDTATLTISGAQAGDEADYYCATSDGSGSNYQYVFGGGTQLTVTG . Value?
9210

Endpoint output: mAb binding (MFI) of HW-25 chimeric rabbit-human IgG1 LA/LA/PG (antibody, V domains shown, Fc-silenced (L234A/L235A/P329G) IgG1, lambda; Alexa Fluor 647-labeled in single-step flow cytometry; Cluster C-1) VH: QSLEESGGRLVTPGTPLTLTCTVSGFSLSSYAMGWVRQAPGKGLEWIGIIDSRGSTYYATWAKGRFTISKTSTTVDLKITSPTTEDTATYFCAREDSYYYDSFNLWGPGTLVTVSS VL: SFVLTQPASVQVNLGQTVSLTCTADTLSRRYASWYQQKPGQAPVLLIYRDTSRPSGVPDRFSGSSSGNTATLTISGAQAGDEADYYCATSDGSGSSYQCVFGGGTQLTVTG . Value?
8720

Endpoint output: mAb binding (MFI) of HW-17 chimeric rabbit-human IgG1 LA/LA/PG (antibody, V domains shown, Fc-silenced (L234A/L235A/P329G) IgG1, lambda; Alexa Fluor 647-labeled in single-step flow cytometry; Cluster C-1) VH: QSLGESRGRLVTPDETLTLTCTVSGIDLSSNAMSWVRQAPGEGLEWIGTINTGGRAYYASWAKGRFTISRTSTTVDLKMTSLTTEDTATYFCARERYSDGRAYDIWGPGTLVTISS VL: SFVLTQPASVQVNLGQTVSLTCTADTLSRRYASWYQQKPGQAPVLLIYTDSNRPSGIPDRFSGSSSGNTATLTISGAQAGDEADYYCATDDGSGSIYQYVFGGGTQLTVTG . Value?
21000

Endpoint output: mAb binding (MFI) of HW-70 chimeric rabbit-human IgG1 LA/LA/PG (antibody, V domains shown, Fc-silenced (L234A/L235A/P329G) IgG1, lambda; Alexa Fluor 647-labeled in single-step flow cytometry; Cluster C-1) VH: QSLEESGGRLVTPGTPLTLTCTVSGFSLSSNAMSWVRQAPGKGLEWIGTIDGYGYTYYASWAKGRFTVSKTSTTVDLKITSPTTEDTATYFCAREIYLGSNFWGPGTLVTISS VL: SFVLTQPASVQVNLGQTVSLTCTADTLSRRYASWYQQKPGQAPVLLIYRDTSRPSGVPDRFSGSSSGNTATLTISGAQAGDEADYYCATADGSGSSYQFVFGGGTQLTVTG . Value?
13800
